- System: yD1
- Experimental Protocol: Induction apoptosis in mouse yD1 cells assessed as ROS production at 10 uM/L using DCFH-DA by flow cytometry relative to control
- Format: functional, cell-based
The source made the active and inactive calls. No cut-off for these calls is given here.
Answer with one of the outcomes active, inactive

Lookup: Any idea what this test logged for CC[C@@]1(OC(=O)NCCNC(=O)CCCCCCCCC(=O)NCCNC(=O)O[C@]2(CC)C(=O)OCc3c2cc2n(c3=O)Cc3cc4ccccc4nc3-2)C(=O)OCc2c1cc1n(c2=O)Cc2cc3ccccc3nc2-1 ?
Found: active

Lookup: Any idea what this test logged for CC[C@@]1(OC(=O)NCCN2C(=O)CCCCCCCCC2=O)C(=O)OCc2c1cc1n(c2=O)Cc2cc3ccccc3nc2-1 ?
Found: inactive

Lookup: Any idea what this test logged for CC[C@@]1(OC(=O)NCCNC(=O)CCCSSCCCC(=O)NCCNC(=O)O[C@]2(CC)C(=O)OCc3c2cc2n(c3=O)Cc3cc4ccccc4nc3-2)C(=O)OCc2c1cc1n(c2=O)Cc2cc3ccccc3nc2-1 ?
Found: active

Lookup: Any idea what this test logged for CC[C@@]1(OC(=O)NCCN2C(=O)CCSSCCC2=O)C(=O)OCc2c1cc1n(c2=O)Cc2cc3ccccc3nc2-1 ?
Found: inactive

###

- System: HeLa
- Experimental Protocol: Cytotoxicity against human HeLa cells after 72 hrs by trypan blue assay
- Assay type: functional, cell-based
Recorded Endpoint: IC50 (nM)
Number in nM, nothing else.

Lookup: Report measured IC50; entry is CC[C@@]1(OC(=O)NCCN2C(=O)CCCCCCCCC2=O)C(=O)OCc2c1cc1n(c2=O)Cc2cc3ccccc3nc2-1
Found: 8300

Lookup: Report measured IC50; entry is CC[C@@]1(OC(=O)NCCNC(=O)CCSSCCC(=O)NCCNC(=O)O[C@]2(CC)C(=O)OCc3c2cc2n(c3=O)Cc3cc4ccccc4nc3-2)C(=O)OCc2c1cc1n(c2=O)Cc2cc3ccccc3nc2-1
Found: 700

Lookup: Report measured IC50; entry is CC[C@@]1(O)C(=O)OCc2c1cc1n(c2=O)Cc2cc3ccccc3nc2-1
Found: 8.9

Lookup: Report measured IC50; entry is CC[C@@]1(OC(=O)NCCN2C(=O)CCSSCCC2=O)C(=O)OCc2c1cc1n(c2=O)Cc2cc3ccccc3nc2-1
Found: 12000

Lookup: Report measured IC50; entry is CC[C@@]1(OC(=O)NCCNC(=O)CCCSSCCCC(=O)NCCNC(=O)O[C@]2(CC)C(=O)OCc3c2cc2n(c3=O)Cc3cc4ccccc4nc3-2)C(=O)OCc2c1cc1n(c2=O)Cc2cc3ccccc3nc2-1
Found: 170

Lookup: Report measured IC50; entry is CC[C@@]1(OC(=O)NCCNC(=O)CCCCCCCCC(=O)NCCNC(=O)O[C@]2(CC)C(=O)OCc3c2cc2n(c3=O)Cc3cc4ccccc4nc3-2)C(=O)OCc2c1cc1n(c2=O)Cc2cc3ccccc3nc2-1
Found: 300

Lookup: Report measured IC50; entry is CC[C@@]1(OC(=O)NCCN2C(=O)CCCSSCCCC2=O)C(=O)OCc2c1cc1n(c2=O)Cc2cc3ccccc3nc2-1
Found: 570

###

- Tested on: yA3
- Experimental Protocol: Induction apoptosis in mouse yA3 cells assessed as ROS production at 10 uM/L using DCFH-DA by flow cytometry relative to control
- Assay type: functional, cell-based
Calls of active or inactive are those of the source. The rule behind the calls is not given here.
Answer with one of the outcomes T (active), F (inactive)

Lookup: Any idea what this test logged for CC[C@@]1(OC(=O)NCCNC(=O)CCCCCCCCC(=O)NCCNC(=O)O[C@]2(CC)C(=O)OCc3c2cc2n(c3=O)Cc3cc4ccccc4nc3-2)C(=O)OCc2c1cc1n(c2=O)Cc2cc3ccccc3nc2-1 ?
Found: T

Lookup: Any idea what this test logged for CC[C@@]1(OC(=O)NCCN2C(=O)CCSSCCC2=O)C(=O)OCc2c1cc1n(c2=O)Cc2cc3ccccc3nc2-1 ?
Found: F

Lookup: Any idea what this test logged for CC[C@@]1(OC(=O)NCCNC(=O)CCCSSCCCC(=O)NCCNC(=O)O[C@]2(CC)C(=O)OCc3c2cc2n(c3=O)Cc3cc4ccccc4nc3-2)C(=O)OCc2c1cc1n(c2=O)Cc2cc3ccccc3nc2-1 ?
Found: T

Lookup: Any idea what this test logged for CC[C@@]1(OC(=O)NCCN2C(=O)CCCCCCCCC2=O)C(=O)OCc2c1cc1n(c2=O)Cc2cc3ccccc3nc2-1 ?
Found: F

###

- Organism: Bos taurus
- Experimental Protocol: Inhibition of calf thymus topoisomerase 1-mediated relaxation of supercoiled pBR322 at 100 uM after 60 mins using ethidium bromide staining by agarose gel electrophoresis
Activity calls are given as the source filed them. No cut-off for these calls is given here.
Recorded Endpoint: Activity

[[record]]
given_smiles = "CC[C@@]1(OC(=O)NCCNC(=O)CCCCCCCCC(=O)NCCNC(=O)O[C@]2(CC)C(=O)OCc3c2cc2n(c3=O)Cc3cc4ccccc4nc3-2)C(=O)OCc2c1cc1n(c2=O)Cc2cc3ccccc3nc2-1"
recorded_endpoint = "Activity"
test_value = "inactive"

[[record]]
given_smiles = "CC[C@@]1(OC(=O)NCCN2C(=O)CCSSCCC2=O)C(=O)OCc2c1cc1n(c2=O)Cc2cc3ccccc3nc2-1"
recorded_endpoint = "Activity"
test_value = "inactive"

[[record]]
given_smiles = "CC[C@@]1(OC(=O)NCCNC(=O)CCCSSCCCC(=O)NCCNC(=O)O[C@]2(CC)C(=O)OCc3c2cc2n(c3=O)Cc3cc4ccccc4nc3-2)C(=O)OCc2c1cc1n(c2=O)Cc2cc3ccccc3nc2-1"
recorded_endpoint = "Activity"
test_value = "inactive"

